Assign %Inh to each entry below.
# System: TRKB;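 further: KINOMEscan kinase panel screen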
# Cond: concentration: 1 μM, replicates: in singlicate; n = 1
Kindly provide the numeric value in % only, without the unit symbol.

Recorded %Inh for O=C1NC(=O)C(N2CCc3ccccc32)=C1c1cccc(Cl)c1 with TRKB, please?
0

Recorded %Inh for Fc1ccc(-c2ncn(CCCN3CCOCC3)c2-c2ccccn2)cc1 with TRKB, please?
0

Recorded %Inh for COc1cc2c(cc1OCCN1CCN(C)CC1)ncc1c3ccc(C#N)cc3[nH]c21 with TRKB, please?
97.2

Recorded %Inh for Cl.Oc1cccc(Nc2ccnc3cc(-c4ccncc4)ccc23)c1 with TRKB, please?
11

Recorded %Inh for NS(=O)(=O)c1cccc(-c2ccc3ncc(N4CCOCC4)nc3c2)c1 with TRKB, please?
0

Recorded %Inh for COc1ccc(S(=O)(=O)NC2CCN(c3cc(C)nc(Nc4cccc(C#N)c4)n3)CC2)cc1.O=C(O)C(F)(F)F with TRKB, please?
0

Recorded %Inh for CC(C)(C)n1cnc2c(N)ncnc21 with TRKB, please?
47

Recorded %Inh for Cc1cccc(Cn2ccn3c(=O)cc(N4CCOCC4)nc23)c1 with TRKB, please?
0

Recorded %Inh for Cc1c(Cn2c(C)nn3c(=O)cc(N4CCOC(C)C4)nc23)cccc1C(F)(F)F (stereo not drawn) with TRKB, please?
0

Recorded %Inh for O=C1Cc2cc(Nc3nc(NCc4cccc(S(=O)(=O)C(F)(F)F)c4)ncc3C(F)(F)F)ccc2N1 with TRKB, please?
0

Recorded %Inh for NS(=O)(=O)CCc1cccc(Nc2nccc(-c3c(-c4cccc(NC(=O)c5c(F)cccc5F)c4)nn4ccccc34)n2)c1 with TRKB, please?
19

Recorded %Inh for O=C(NCCNc1ccnc(Nc2ccc(F)cc2)n1)Nc1ccccc1F with TRKB, please?
18

Recorded %Inh for Cc1ccc(C(=O)NCC(N)=O)cc1-n1c(C)cc(OCc2ccc(F)cc2F)c(Br)c1=O with TRKB, please?
0

Recorded %Inh for COc1ccc(COc2cc(-n3cnc4ccccc43)sc2C(N)=O)cc1 with TRKB, please?
0

Recorded %Inh for COc1ccc(Nc2ncc(C#N)c(Nc3ccccc3C(N)=O)n2)cc1N1CCN(C)CC1.Cl with TRKB, please?
94.8

Recorded %Inh for COc1ccc(CNC(=O)NC2CCN(c3ccnc(Nc4ccc(OC)cc4)n3)C2)cc1 (stereo not drawn) with TRKB, please?
0

Recorded %Inh for CCn1cnc2c(N)ncnc21 with TRKB, please?
0

Recorded %Inh for O=c1cc(N2CCOCC2)nc2n(Cc3cccc(Cl)c3Cl)c(C3CC3)nn12 with TRKB, please?
0

Recorded %Inh for CCCCCc1nc2c(N)ncnc2n1CCCCC with TRKB, please?
0

Recorded %Inh for [2H]C([2H])(c1cccc(C(F)(F)F)c1C)n1ccn2c(=O)nc(N3CCOCC3)cc12 with TRKB, please?
0

Recorded %Inh for Cc1ccc(NC(=O)c2ccnc(N3CCN(C)CC3)c2)cc1-c1ccc(C(=O)NCC2CC2)cc1 with TRKB, please?
0

Recorded %Inh for O=C(NOCC1CC1)c1ccc(F)c(F)c1Nc1ccc(I)cc1Cl with TRKB, please?
0

Recorded %Inh for CCc1nc(-c2cccc(C)c2)c(-c2ccnc(NCc3ccccc3)c2)s1 with TRKB, please?
0

Recorded %Inh for Cc1cccc(-c2nc(-c3ccc(S(C)(=O)=O)cc3)sc2-c2ccncc2)c1 with TRKB, please?
0
